system: NCI-H23 lung; experiment: NCI-60 one-dose screen, 48 h; settings: 10 µM
About 83,000 compounds went through this panel and 20% of them were active in at least one assay; those are over-represented in the sample as a whole. Activity calls are given as the source filed them. How the source made its calls: active means growth percent below 10; inactive means the rest.
Your reply should match one of these outcome classes. active, inactive

Example entries begin here.
- O=[N+]([O-])c1ccc(Oc2cc(Cl)c(Cl)cc2Cl)c(C(F)(F)F)c1: inactive
- CCOC(=O)C1(CC(C)C)CCOC1=O (stereo not given): inactive
- O=C1ON=[N+](c2ccc(Cc3ccc([N+]4=NOC(=O)C4CN4CCOCC4)cc3)cc2)C1CN1CCOCC1 (stereo not given): inactive
- N#Cc1ncc(-c2ccc(C(F)(F)F)cc2)c(NCc2cc(C(F)(F)F)cc(C(F)(F)F)c2)n1: inactive
- CCOC(=O)C1CCc2c(ccc3ccccc23)N1CCC#N (stereo not given): inactive
- CCN1CCC2(CC1)OC(c1ccccc1)C(c1ccccc1)O2 (stereo not given): inactive
- COc1ccc(Cl)cc1-n1nnc(-c2nc3ccccc3[nH]2)c1N: inactive
- CCN(CC)CCCC(C)Nc1nc(-c2ccc(OC)cc2)nc2cc(Cl)ccc12 (stereo not given): inactive

IN: For this compound, state the assay outcome: `N#CCCN1C/C(=C/c2ccc(Cl)cc2)C(=O)/C(=C/c2ccc(Cl)cc2)C1`
OUT: active

IN: Record request — test call for `O=C(O)CCCCSc1ncnc2nc[nH]c12`
OUT: inactive

* * *

system: HCC-2998 colon; experiment: NCI-60 one-dose screen, 48 h (100 = growth as untreated, 0 = no growth, -100 = all killed); conditions: 10 µM
About 83,000 compounds went through this panel and 20% of them were active in at least one assay; those are over-represented in the sample as a whole.
property: growth (%)
# unit: % | format: bare number

Some solved cases for reference:
* CC(C)(C)c1ccc(N2CSC(=S)N(c3ccc(C(C)(C)C)cc3)C2)cc1 | 96.4
* Cc1cc(Cc2cc(C)c(O)c(C)c2)cc(C)c1O | 74.4
* CCOCC(=O)C(C#N)c1ccc(Cl)c(Cl)c1 (configuration not stated) | 106

IN: State growth (HCC-2998 colon) of `C[C@@H]1C=C2C(=O)O[C@@H]3CC[C@H](C1)[C@]23O` .
OUT: 99.9

IN: Give HCC-2998 colon growth for the following compound: `COc1ccc(Nc2ccnc(NCCNc3ccnc4cc(Cl)ccc34)n2)cc1`
OUT: 41.1

IN: Fetch value of growth on HCC-2998 colon for `COc1cc2nc(Nc3cccc(C(=O)O)c3)nc(N)c2cc1OC` .
OUT: 135

IN: Lab note: record growth of `O=C(N/N=C/c1ccccc1O)C(O)(c1ccccc1)c1ccccc1` tested on HCC-2998 colon.
OUT: 76.3

IN: Using HCC-2998 colon as the test system, report measured growth of COc1ccc(C2=NN(C(=O)c3ccc(S(C)(=O)=O)cc3)C(c3ccc(OC)c(OC)c3)C2)c(OC)c1 (configuration not stated) .
OUT: 102

IN: // fetch growth; item: `COc1ccc2c(c1)O/C(=C\c1ccc([N+](=O)[O-])o1)C2=O` ; system: HCC-2998 colon
OUT: -26.8

IN: Fill: growth (HCC-2998 colon) for this compound COc1ccc(C2=Nc3c(C)nn(-c4ccccc4)c3NC(c3ccc(Oc4ccnc5cc(Cl)ccc45)c(OC)c3)C2)cc1 (configuration not stated)
OUT: 89.7

IN: Write down the reported growth (system: HCC-2998 colon) of `O=C(O)CN1C(=O)c2cccc3cccc(c23)C1=O`
OUT: 103

IN: Give HCC-2998 colon growth for the following compound: `COc1ccc(-c2nn(-c3cccc(NC(=O)c4ccc(Cl)c(Cl)c4)c3)cc2-c2ccncc2)cc1Cl`
OUT: 82

IN: // output growth; input `Nc1ncn([C@@H]2O[C@H](CO)[C@@H](O)[C@H]2O)c(=O)n1` ; system HCC-2998 colon
OUT: 11.7

IN: Determine reported growth for `O=C1/C(=C/c2ccc([N+](=O)[O-])o2)Oc2ccccc21` ; test system: HCC-2998 colon.
OUT: -1.7

IN: Under HCC-2998 colon: report growth of `O=c1[nH]c2ccc(Cl)cc2c2ccccc12` .
OUT: 52.4

IN: Check HCC-2998 colon data and give growth for `O=C1C(=O)c2ccccc2C(O)=C1CCCc1ccc(C2CCCCCC2)cc1` .
OUT: 8.94

IN: Report measured growth on HCC-2998 colon; entry: `COc1ccc(-c2nn(-c3cccc(NC(=O)c4cccc(C(F)(F)F)c4)c3)cc2-c2ccncc2)cc1Cl`
OUT: 33.6

IN: # return growth for CCCCCCCC(C)NCCO (configuration not stated) , test system: HCC-2998 colon
OUT: 105
